Test: Cytotoxicity against human CEMx174 cells
Assay type: cell-based
Measurement Kind: CC50

Answered cases to consult:
| Compound | CC50 |
| --- | --- |
| O=C1NC(C2CC2)=C(C(=O)OCC2CCCCC2)C(c2cccc(O)c2)N1 (stereo unspecified) | > 10 µM |
| O=C1NC(c2ccccc2)=C(C(=O)OCC2CCCCC2)C(c2cccc(O)c2)N1 (stereo unspecified) | > 10 µM |
| CC1=C(C(=O)OCC2CCCCC2)C(c2ccccc2O)NC(=O)N1 (stereo unspecified) | > 10 µM |

IN: For the compound shown here, CCC1=C(C(=O)OCC2CCCCC2)C(c2ccc(N)cc2)NC(=O)N1 (stereo unspecified) , give the reported CC50.
OUT: > 10 µM

IN: For the compound shown here, CC1=C(C(=O)OCC2CCCCC2)C(c2cccc(O)c2)NC(=O)N1C (stereo unspecified) , give the reported CC50.
OUT: > 10 µM

###

Test system: Human immunodeficiency virus 1
Experiment: Antiviral activity against HIV1 LAI infected in human CEMx174 cells coexpressing GFP preincubated for 1 hr measured after 5 days by fluorimetry
Type: functional, organism-based
Settings: Human immunodeficiency virus 1, LAI
Measurement Kind: pEC50
Reminder that pEC50 means the negative base-10 logarithm of the concentration expressed in mol/L.

Answered cases to consult:
| Compound | Measurement Kind | Reported Result |
| --- | --- | --- |
| CCC1=C(C(=O)OCC2CCCCC2)C(c2cccc(O)c2)NC(=O)N1 (racemic) | pEC50 | 7.06 |
| Cc1ccnc2c1NC(=O)c1cccnc1N2C1CC1 | pEC50 | 6.82 |
| CCC1=C(C(=O)OCC2CCCCC2)C(c2ccc(NC)cc2)NC(=O)N1 (configuration not stated) | pEC50 | 6.97 |
| CCC1=C(C(=O)OCC2CCCCC2)C(c2ccc(N(C)C)cc2)NC(=O)N1 (configuration not stated) | pEC50 | 6.75 |
| CCC1=C(C(=O)OCC2CCCCC2)C(c2ccc(O)cc2)NC(=O)N1 (configuration not stated) | pEC50 | 7.51 |
| CC1=C(C(=O)OCC2CCCCC2)C(c2ccc(O)cc2)NC(=O)N1 (configuration not stated) | pEC50 | 6.37 |
| CCC1=C(C(=O)OCC2CCCCC2)C(c2cccc(N)c2)NC(=O)N1 (configuration not stated) | pEC50 | 6.80 |
| CC1=C(C(=O)OCC2CCCCC2)C(c2cccc(O)c2)NC(=O)N1 (racemic) | pEC50 | 6.28 |

IN: For the compound shown here, COc1cccc(C2NC(=O)NC(C)=C2C(=O)OCC2CCCCC2)c1 (configuration not stated) , give the reported pEC50.
OUT: 5.90

IN: For the compound shown here, CCC1=C(C(=O)OCC2CCCCC2)C(c2ccc(N)cc2)NC(=O)N1 (configuration not stated) , give the reported pEC50.
OUT: 6.82

###

System: Human immunodeficiency virus 1
Test: Antiviral activity against HIV1 LAI infected in human CEMx174 cells coexpressing GFP preincubated for 1 hr measured after 5 days by fluorimetry
Type: functional, organism-based
Conditions: Human immunodeficiency virus 1, LAI
The following molecules are shown together with reported EC50 values.
Give the quantity in nM, number only.

IN: For the molecule shown here, CCC1=C(C(=O)OCC2CCCCC2)C(c2ccc(C#N)cc2)NC(=O)N1 (configuration not stated) , give the reported EC50.
OUT: 61

IN: For the molecule shown here, CC1=C(C(=O)OCC2CCCCC2)[C@H](c2cccc(O)c2)NC(=O)N1 , give the reported EC50.
OUT: 233

IN: For the molecule shown here, CCC1=C(C(=O)OCC2CCCCC2)C(c2ccc(C(=O)OC)cc2)NC(=O)N1 (configuration not stated) , give the reported EC50.
OUT: 122

IN: For the molecule shown here, CCC1=C(C(=O)OCC2CCCCC2)C(c2ccc([N+](=O)[O-])cc2)NC(=O)N1 (configuration not stated) , give the reported EC50.
OUT: 141

IN: For the molecule shown here, O=C1NC(CCl)=C(C(=O)OCC2CCCCC2)C(c2cccc(O)c2)N1 (configuration not stated) , give the reported EC50.
OUT: 359

IN: For the molecule shown here, CCC1=C(C(=O)OCC2CCCCC2)C(c2cccc([N+](=O)[O-])c2)NC(=O)N1 (configuration not stated) , give the reported EC50.
OUT: 335
